Where these numbers come from: patent US11286268B1

Target: recombinant eIF4E (Homo sapiens (Human))
Experiment: Fluorescence polarization competition assay for eIF4E binding potency
Settings: inhibition of eIF4E/EDA-m7GDP-ATTO-550 binding by 50%; Table 4B calculated values; read-out: IC50
Method: Compounds were screened for eIF4E binding potency using a fluorescence polarization competition assay. All binding reactions were performed in fluorescence polarization buffer (FPB) containing 20 mM Tris pH 7.5, 100 mM NaCl, 1 mM DTT, and 0.02% Tween-20. Final binding reactions contained 75 nM recombinant eIF4E (Beryllium, custom order), 20 nM EDA-m^7GDP-ATTO-550 (Jena Bioscience, NU-827-550) and varying concentrations of the inhibitory compound of interest. […]
Reported IC50 values follow for various molecules
reported_property: IC50 (nM)

{"molecule_smiles": "Cc1nc2c(ccc3cnncc32)c(=O)n1CCOc1ccc(Cl)cc1-c1ccnc2c(C(=O)O)csc12", "system_name": "recombinant eIF4E (Homo sapiens (Human))", "numeric_readout": 26.4}
{"molecule_smiles": "Cc1cc(-c2cc(Cl)ccc2OCCn2c(C)nc3cc(CNC(C)(C)C)c(OC(F)F)c(C#N)c3c2=O)c2scc(C(=O)O)c2n1", "system_name": "recombinant eIF4E (Homo sapiens (Human))", "numeric_readout": 6.34}
{"molecule_smiles": "Cc1cc(-c2cc(Cl)ccc2OCCn2c(C)nc3cc(-c4cccnc4)c(Cl)c(C#N)c3c2=O)c2scc(C(=O)O)c2n1", "system_name": "recombinant eIF4E (Homo sapiens (Human))", "numeric_readout": 15.6}
{"molecule_smiles": "Cc1cc(-c2cc(Cl)ccc2OCCn2c(C)nc3cc(C(F)(F)F)c(CN4CCN(C)CC4)c(C#N)c3c2=O)c2sc(C)c(C(=O)O)c2n1", "system_name": "recombinant eIF4E (Homo sapiens (Human))", "numeric_readout": 19.7}
{"molecule_smiles": "CONC(=O)c1csc2c(-c3cc(Cl)ccc3OCCn3c(C)nc4cc(C(F)(F)F)c(Cl)c(C#N)c4c3=O)ccnc12", "system_name": "recombinant eIF4E (Homo sapiens (Human))", "numeric_readout": 623}
{"molecule_smiles": "Cc1cc(-c2cc(Cl)ccc2OCCn2c(C)nc3cnc(-c4ccc(Cl)cc4)c(C#N)c3c2=O)c2scc(C(=O)O)c2n1", "system_name": "recombinant eIF4E (Homo sapiens (Human))", "numeric_readout": 37.3}

----------
Molecular target: recombinant eIF4E (Homo sapiens (Human), UniProt P06730)
Sequence (P06730 whole entry): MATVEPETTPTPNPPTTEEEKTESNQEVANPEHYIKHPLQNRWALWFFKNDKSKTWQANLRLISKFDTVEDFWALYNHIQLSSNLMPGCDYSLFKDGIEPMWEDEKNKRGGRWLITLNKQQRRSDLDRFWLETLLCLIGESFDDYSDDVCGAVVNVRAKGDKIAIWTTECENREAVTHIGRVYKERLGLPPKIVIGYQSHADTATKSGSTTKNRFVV
Experiment: Fluorescence polarization competition assay for eIF4E binding potency
Details: inhibition of eIF4E/EDA-m7GDP-ATTO-550 binding by 50%; Table 4B calculated values; read-out: IC50
pIC50: −log10 of the molar value.

{"molecule_smiles": "N#Cc1cc2c(=O)n(C/C=C/c3ccc(Cl)cc3-c3cccc(C(=O)O)c3)cnc2cn1", "system_name": "recombinant eIF4E (Homo sapiens (Human), UniProt P06730)", "pIC50": 5.46}
{"molecule_smiles": "Cc1nc2cnc(N(C)C3CCN(CC(F)(F)F)CC3)c(C#N)c2c(=O)n1CCOc1ccc(Cl)cc1-c1ccnc2c(C(=O)NS(C)(=O)=O)csc12", "system_name": "recombinant eIF4E (Homo sapiens (Human), UniProt P06730)", "pIC50": 7.66}
{"molecule_smiles": "Cc1c(CCOc2ccc(Cl)cc2-c2ccnc3c(C(=O)O)csc23)c(=O)c2c(C#N)cc(C(F)(F)F)cc2n1C", "system_name": "recombinant eIF4E (Homo sapiens (Human), UniProt P06730)", "pIC50": 7.32}
{"molecule_smiles": "Cc1nc2cc(C(F)(F)F)cc(C#N)c2c(=O)n1CCOc1ccnnc1-c1ccnc2c(C(=O)O)csc12", "system_name": "recombinant eIF4E (Homo sapiens (Human), UniProt P06730)", "pIC50": 5.63}
{"molecule_smiles": "Cc1cc(-c2cc(Cl)ccc2OCCn2c(C)nc3cc(C(F)(F)F)c(CCCN(C)C)c(C#N)c3c2=O)c2scc(C(=O)O)c2n1", "system_name": "recombinant eIF4E (Homo sapiens (Human), UniProt P06730)", "pIC50": 7.25}
{"molecule_smiles": "Cc1cc(-c2cc(Cl)ccc2OCCn2c(C)nc3cc(Cl)c(-c4cncc(F)c4)c(C#N)c3c2=O)c2scc(C(=O)O)c2n1", "system_name": "recombinant eIF4E (Homo sapiens (Human), UniProt P06730)", "pIC50": 7.66}
